Recorded values, source a melting point compilation (Tetko et al.; mined from patent text by program, amines drawn as free bases though some values may be those of a salt).

Reported melting point values follow for various molecules
Experimental readout: melting point

In [3]: df
Out[3]:
                                    molecule  experimental_value
 0  CC(=O)NC(CF)COC1CCN(c2nc3ccc(OCC4CC4)cc3o2)CC1 (stereo not given)       120 to 121 °C
 1  CCOCc1nc2c(N)nc3cc(-c4ccccc4)ccc3c2n1CC(C)(C)NS(C)(=O)=O       239 to 242 °C
 2             Cc1ccc([N+](=O)[O-])c(C#N)c1C       107 to 108 °C
 3      CCOCc1nc2cnc3cc(Br)cnc3c2n1CC(C)(C)F       127 to 128 °C
 4  CC(C)(C)C(NC(=O)c1ccc(F)cc1)NC(=NC#N)Nc1cccnc1 (stereo not given)       195 to 196 °C
 5   N#Cc1ccccc1N1CCN(Cc2cn3cc(Cl)ccc3n2)CC1       167 to 169 °C
 6           COc1cc(Cl)c(Cl)cc1Oc1ccc(Cl)cc1              105 °C
 7  COc1ccc2c(c1)OCC(NNc1ncnc3c1ncn3C1OC(CO)C(O)C1O)C2 (stereo not given)       205 to 207 °C
 8  COC(=O)c1ccc(C2=N[C@H]3CCCC[C@H]3c3cc(OC)c(OC)cc32)cc1 (racemic)              122 °C
 9     Nc1ccc2ncnc(Nc3ccc(Oc4ccccc4)cc3)c2c1         89 to 90 °C
10  COc1c(NC(=O)c2ccc(Br)cc2)cccc1[N+](=O)[O-]       162 to 163 °C
11  Cc1c(CNCC(C)(C)C)[nH]c2c(C)c(NC(=O)c3ccc(OC[C@@H]4CCCO4)cc3)ccc12       178 to 179 °C
12  Cc1noc(C)c1Cn1cc(N2C(=O)CN(CCOc3ccccc3)C2=O)cn1       117 to 118 °C
13  CCCN(Cc1ccc(-c2ccccc2-c2nc(=O)s[nH]2)cc1)c1nc2ccccc2cc1C(=O)OCC       124 to 125 °C
14  C=C1CC(COc2cc(=O)oc3ccccc23)(c2ccccc2)OC1=O (stereo not given)       212 to 214 °C
